- Tested on: NCI-H647
- method.description: relative viability (nuclei count vs DMSO), 5 days (fraction); higher = more cells survive
- protocol.conditions: first compound 0.0002 µM
measure: relative viability
Numbers only.

Note to self: relative viability recorded for CC(=O)O[C@@]12CO[C@@H]1C[C@H](O)[C@@]1(C)C(=O)[C@H](O)C3=C(C)[C@@H](OC(=O)[C@H](O)[C@@H](NC(=O)OC(C)(C)C)c4ccccc4)C[C@@](O)([C@@H](OC(=O)c4ccccc4)[C@H]21)C3(C)C [Docetaxel] + NC(=O)Nc1cc(-c2cccc(F)c2)sc1C(=O)N[C@H]1CCCNC1 [AZD7762] (partner 0.2 µM) was 0.297

====

- Tested on: NCI-H1734
- method.description: relative viability (nuclei count vs DMSO), 5 days (fraction); higher = more cells survive
- protocol.conditions: first compound 8 µM
I'd appreciate it if you could supply relative viability values for the items below.
Numbers only.

Here is how some molecules turned out for relative viability.
INSERT INTO measurements (molecule, target_system, measure, reported_result) VALUES
  ('O=c1[nH]c2ccccc2n1C1CCN(CCCC(c2ccc(F)cc2)c2ccc(F)cc2)CC1 [Pimozide] + Cc1nc(Nc2ncc(C(=O)Nc3c(C)cccc3Cl)s2)cc(N2CCN(CCO)CC2)n1 [Dasatinib] (partner 0.075 µM)', 'NCI-H1734', 'relative viability', 0.493),
  ('O=c1[nH]c2ccccc2n1C1CCN(CCCC(c2ccc(F)cc2)c2ccc(F)cc2)CC1 [Pimozide] + CC1(C)CCC(c2ccc(Cl)cc2)=C(CN2CCN(c3ccc(C(=O)NS(=O)(=O)c4ccc(N[C@H](CCN5CCOCC5)CSc5ccccc5)c(S(=O)(=O)C(F)(F)F)c4)cc3)CC2)C1 [Navitoclax] (partner 0.5 µM)', 'NCI-H1734', 'relative viability', 0.836),
  ('O=c1[nH]c2ccccc2n1C1CCN(CCCC(c2ccc(F)cc2)c2ccc(F)cc2)CC1 [Pimozide] + NC(=O)Nc1cc(-c2cccc(F)c2)sc1C(=O)N[C@H]1CCCNC1 [AZD7762] (partner 0.2 µM)', 'NCI-H1734', 'relative viability', 0.485),
  ('O=c1[nH]c2ccccc2n1C1CCN(CCCC(c2ccc(F)cc2)c2ccc(F)cc2)CC1 [Pimozide] + CC(C)C[C@H](NC(=O)[C@H](Cc1ccccc1)NC(=O)c1cnccn1)B(O)O [Bortezomib] (partner 0.002 µM)', 'NCI-H1734', 'relative viability', 0.844),
  ('O=c1[nH]c2ccccc2n1C1CCN(CCCC(c2ccc(F)cc2)c2ccc(F)cc2)CC1 [Pimozide] + O=C(c1cc(Cc2n[nH]c(=O)c3ccccc23)ccc1F)N1CCN(C(=O)C2CC2)CC1 [Olaparib] (partner 8 µM)', 'NCI-H1734', 'relative viability', 0.637);

API: the following record is the query input.
Note to self: relative viability recorded for O=c1[nH]c2ccccc2n1C1CCN(CCCC(c2ccc(F)cc2)c2ccc(F)cc2)CC1 [Pimozide] + CS(=O)(=O)N1CCN(Cc2cc3nc(-c4cccc5[nH]ncc45)nc(N4CCOCC4)c3s2)CC1 [Pictilisib] (partner 1 µM) was 0.46

====

- Tested on: NCI-H2228
- method.description: relative viability (nuclei count vs DMSO), 5 days (fraction); higher = more cells survive
- protocol.conditions: first compound 50 µM
Could you mark each record Criterion met if its relative viability falls strictly under 0.6, and Criterion not met if it equals or exceeds it?

Example entries begin here.
INSERT INTO results (molecule, assigned_class) VALUES
  ('O=C(O)CCCCC(CCSCc1ccccc1)SCc1ccccc1 (stereo not given) [CPI-613] + CC1(C)CCC(c2ccc(Cl)cc2)=C(CN2CCN(c3ccc(C(=O)NS(=O)(=O)c4ccc(N[C@H](CCN5CCOCC5)CSc5ccccc5)c(S(=O)(=O)C(F)(F)F)c4)cc3)CC2)C1 [Navitoclax] (partner 0.5 µM)', 'Criterion not met'),
  ('O=C(O)CCCCC(CCSCc1ccccc1)SCc1ccccc1 (stereo not given) [CPI-613] + N=C(N)NC(=N)NCCc1ccccc1 [Phenformin] (partner 250 µM)', 'Criterion met'),
  ('O=C(O)CCCCC(CCSCc1ccccc1)SCc1ccccc1 (stereo not given) [CPI-613] + Cc1nc(Nc2ncc(C(=O)Nc3c(C)cccc3Cl)s2)cc(N2CCN(CCO)CC2)n1 [Dasatinib] (partner 0.075 µM)', 'Criterion met'),
  ('O=C(O)CCCCC(CCSCc1ccccc1)SCc1ccccc1 (stereo not given) [CPI-613] + CC(C)C[C@H](NC(=O)[C@H](Cc1ccccc1)NC(=O)c1cnccn1)B(O)O [Bortezomib] (partner 0.002 µM)', 'Criterion not met');

# strict comparison: is reported relative viability < 0.6? input = O=C(O)CCCCC(CCSCc1ccccc1)SCc1ccccc1 (stereo not given) [CPI-613] + O=C(CCCCCCC(=O)Nc1ccccc1)NO [Vorinostat] (partner 1 µM) Criterion met

====

- Tested on: NCI-H2347
- method.description: relative viability (nuclei count vs DMSO), 5 days (fraction); higher = more cells survive
- protocol.conditions: first compound 0.005 µM
measure: relative viability
Answers are plain numbers.

INSERT INTO measurements (compound, measure, reported_result) VALUES
  ('Nc1ccn([C@@H]2O[C@H](CO)[C@@H](O)[C@@H]2O)c(=O)n1 [Cytarabine] + CCNC(=O)c1noc(-c2cc(C(C)C)c(O)cc2O)c1-c1ccc(CN2CCOCC2)cc1 [Luminespib] (partner 0.01 µM)', 'relative viability', 0.284);

API: the following record is the query input.
Note to self: relative viability recorded for COc1cc2nccc(Oc3ccc(NC(=O)Nc4cc(C)on4)c(Cl)c3)c2cc1OC [Tivozanib] + Nc1nc2[nH]cc(CCc3ccc(C(=O)N[C@@H](CCC(=O)O)C(=O)O)cc3)c2c(=O)[nH]1 [Pemetrexed] (partner 0.2 µM) was 0.4

====

- System: NCI-H647
- method.description: relative viability (nuclei count vs DMSO), 5 days (fraction); higher = more cells survive
- protocol.conditions: first compound 0.253 µM
I'd appreciate it if you could supply relative viability values for the items below.

Here is how some compounds turned out for relative viability.
INSERT INTO assay_data (compound, measure, reported_result) VALUES
  ('Cc1cnc(-c2cnc(NCCNc3ccc(C#N)cn3)nc2-c2ccc(Cl)cc2Cl)[nH]1 + N=C(N)NC(=N)NCCc1ccccc1 [Phenformin] (partner 250 µM)', 'relative viability', 0.362),
  ('O=c1[nH]c2ccccc2n1C1CCN(CCCC(c2ccc(F)cc2)c2ccc(F)cc2)CC1 [Pimozide] + COc1cc2c(Oc3ccc(NC(=O)C4(C(=O)Nc5ccc(F)cc5)CC4)cc3F)ccnc2cc1OCCCN1CCOCC1 [Foretinib] (partner 0.25 µM)', 'relative viability', 1.17),
  ('O=c1[nH]c2ccccc2n1C1CCN(CCCC(c2ccc(F)cc2)c2ccc(F)cc2)CC1 [Pimozide] + CCNC(=O)c1noc(-c2cc(C(C)C)c(O)cc2O)c1-c1ccc(CN2CCOCC2)cc1 [Luminespib] (partner 0.01 µM)', 'relative viability', 0.0882);

Record relative viability per entry; entries follow.
1. Cc1cnc(-c2cnc(NCCNc3ccc(C#N)cn3)nc2-c2ccc(Cl)cc2Cl)[nH]1 + COc1cccc2cc(-c3nc([C@H]4CC[C@H](C(=O)O)CC4)n4ncnc(N)c34)[nH]c12 [OSI-027] (partner 0.5 µM)
2. Cc1cnc(-c2cnc(NCCNc3ccc(C#N)cn3)nc2-c2ccc(Cl)cc2Cl)[nH]1 + Nc1nc2[nH]cc(CCc3ccc(C(=O)N[C@@H](CCC(=O)O)C(=O)O)cc3)c2c(=O)[nH]1 [Pemetrexed] (partner 0.2 µM)
3. O=c1[nH]c2ccccc2n1C1CCN(CCCC(c2ccc(F)cc2)c2ccc(F)cc2)CC1 [Pimozide] + CS(=O)(=O)CCNCc1ccc(-c2ccc3ncnc(Nc4ccc(OCc5cccc(F)c5)c(Cl)c4)c3c2)o1 [Lapatinib] (partner 2 µM)
4. O=c1[nH]c2ccccc2n1C1CCN(CCCC(c2ccc(F)cc2)c2ccc(F)cc2)CC1 [Pimozide] + COc1cccc2cc(-c3nc([C@H]4CC[C@H](C(=O)O)CC4)n4ncnc(N)c34)[nH]c12 [OSI-027] (partner 0.5 µM)
5. Cc1cnc(-c2cnc(NCCNc3ccc(C#N)cn3)nc2-c2ccc(Cl)cc2Cl)[nH]1 + O=C(c1cc(Cc2n[nH]c(=O)c3ccccc23)ccc1F)N1CCN(C(=O)C2CC2)CC1 [Olaparib] (partner 8 µM)
6. O=c1[nH]c2ccccc2n1C1CCN(CCCC(c2ccc(F)cc2)c2ccc(F)cc2)CC1 [Pimozide] + CC(=O)c1c(C)c2cnc(Nc3ccc(N4CCNCC4)cn3)nc2n(C2CCCC2)c1=O [Palbociclib] (partner 0.5 µM)

[0.512, 0.148, 1.03, 0.71, 0.558, 0.509]

====

- Test system: EKVX
- method.description: relative viability (nuclei count vs DMSO), 5 days (fraction); higher = more cells survive
- protocol.conditions: first compound 2.53 µM
measure: relative viability
One number for each entry.

Here is how some compounds turned out for relative viability.
INSERT INTO results (compound, measure, reported_result) VALUES
  ('Cc1cnc(-c2cnc(NCCNc3ccc(C#N)cn3)nc2-c2ccc(Cl)cc2Cl)[nH]1 + CC(C)C[C@H](NC(=O)[C@H](Cc1ccccc1)NC(=O)c1cnccn1)B(O)O [Bortezomib] (partner 0.002 µM)', 'relative viability', 0.961),
  ('Cc1cnc(-c2cnc(NCCNc3ccc(C#N)cn3)nc2-c2ccc(Cl)cc2Cl)[nH]1 + CCNC(=O)c1noc(-c2cc(C(C)C)c(O)cc2O)c1-c1ccc(CN2CCOCC2)cc1 [Luminespib] (partner 0.01 µM)', 'relative viability', 0.88),
  ('O=c1[nH]c2ccccc2n1C1CCN(CCCC(c2ccc(F)cc2)c2ccc(F)cc2)CC1 [Pimozide] + CC(C)C[C@H](NC(=O)[C@H](Cc1ccccc1)NC(=O)c1cnccn1)B(O)O [Bortezomib] (partner 0.002 µM)', 'relative viability', 0.994),
  ('Cc1cnc(-c2cnc(NCCNc3ccc(C#N)cn3)nc2-c2ccc(Cl)cc2Cl)[nH]1 + NC(=O)Nc1cc(-c2cccc(F)c2)sc1C(=O)N[C@H]1CCCNC1 [AZD7762] (partner 0.2 µM)', 'relative viability', 0.655);

API: the following record is the query input.
Note to self: relative viability recorded for Cc1cnc(-c2cnc(NCCNc3ccc(C#N)cn3)nc2-c2ccc(Cl)cc2Cl)[nH]1 + CC(=O)Nc1cccc(-n2c(=O)n(C3CC3)c(=O)c3c(Nc4ccc(I)cc4F)n(C)c(=O)c(C)c32)c1 [Trametinib] (partner 0.02 µM) was 0.358
